Listing of entries alongside the reported glycan array binding signal (z-score).
measured_target: Neu5Ac(a2-3)Gal(b1-4)[Fuc(a1-3)]GlcNAc(b1-3)GalNAc
experimental_details: glycan array binding signal (z-score within array); higher = stronger binding
test_conditions: glycan notation: IUPAC condensed, linker removed
The full list was thinned out, with the strongest signals kept by preference.
Respond with the number and no other words.

Quote glycan array binding signal (z-score) reported for SAG1 (Toxoplasma gondii), P13664 (protein) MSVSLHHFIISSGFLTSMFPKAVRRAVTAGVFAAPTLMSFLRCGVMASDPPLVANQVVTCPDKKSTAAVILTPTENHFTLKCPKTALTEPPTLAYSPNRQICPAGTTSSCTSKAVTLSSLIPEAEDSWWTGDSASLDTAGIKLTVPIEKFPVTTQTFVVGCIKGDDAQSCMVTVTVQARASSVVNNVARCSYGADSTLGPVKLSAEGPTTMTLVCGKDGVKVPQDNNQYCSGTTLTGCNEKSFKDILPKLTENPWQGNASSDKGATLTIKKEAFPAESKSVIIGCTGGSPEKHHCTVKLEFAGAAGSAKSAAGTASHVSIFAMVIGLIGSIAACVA please.
3.63

Input SefD (Salmonella enterica), Q9L6K6 (protein) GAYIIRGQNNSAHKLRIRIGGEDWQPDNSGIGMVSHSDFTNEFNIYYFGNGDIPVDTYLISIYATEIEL , output reported glycan array binding signal (z-score).
11.3

src = the supplement of paper PMC8728848
